- measurement target: rat TRPV2 (Rattus norvegicus, UniProt Q9WUD2)
- Construct: expressed in transfected cells
- Sequence (Q9WUD2 whole entry): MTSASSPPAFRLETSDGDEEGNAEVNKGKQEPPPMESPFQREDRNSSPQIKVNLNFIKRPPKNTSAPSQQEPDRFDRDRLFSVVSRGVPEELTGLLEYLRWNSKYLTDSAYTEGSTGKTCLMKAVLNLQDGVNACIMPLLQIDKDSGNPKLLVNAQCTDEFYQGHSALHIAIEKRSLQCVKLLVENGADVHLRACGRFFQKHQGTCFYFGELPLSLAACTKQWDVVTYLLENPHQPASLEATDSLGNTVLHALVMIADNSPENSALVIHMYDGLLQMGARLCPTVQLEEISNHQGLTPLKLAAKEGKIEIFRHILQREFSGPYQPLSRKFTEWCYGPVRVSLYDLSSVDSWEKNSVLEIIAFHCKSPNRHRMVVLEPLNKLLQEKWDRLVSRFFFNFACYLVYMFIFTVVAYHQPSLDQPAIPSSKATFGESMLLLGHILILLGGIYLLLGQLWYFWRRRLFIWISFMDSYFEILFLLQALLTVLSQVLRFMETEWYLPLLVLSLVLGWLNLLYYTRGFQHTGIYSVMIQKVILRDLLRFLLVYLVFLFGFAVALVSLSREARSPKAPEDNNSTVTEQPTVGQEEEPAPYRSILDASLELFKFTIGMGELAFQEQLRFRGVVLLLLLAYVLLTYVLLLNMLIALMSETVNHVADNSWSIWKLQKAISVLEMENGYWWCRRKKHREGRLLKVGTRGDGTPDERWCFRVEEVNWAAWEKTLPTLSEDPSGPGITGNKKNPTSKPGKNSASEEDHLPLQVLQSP
- procedure details: Thermo-TRP assay: [Ca2+]i elevation (Fluo-4) in HEK-293 cells transfected with TRPV2
- Format: cell-based
- condition description: agonist effect as % of ionomycin 4 μM
recorded endpoint: TRPV2 Efficacy (% Ionomycin 4 μM)
Could you kindly put the unit after your number?

What TRPV2 Efficacy (% Ionomycin 4 μM) value was documented for this molecule, C=C(C)[C@@H]1CCC(C)=C[C@H]1C1=C(O)C(=O)C(C(C)(C)CCCCCC)=CC1=O ?
30.6 ± 6.5%

Could you share which TRPV2 Efficacy (% Ionomycin 4 μM) value was measured for CCCCCCC(C)(C)C1=CC2=C(C(=O)C1=O)c1cc(C)ccc1C(C)(C)O2 ?
23.4 ± 3.7%

Looking for the measured TRPV2 Efficacy (% Ionomycin 4 μM) of CCCCCCC(C)(C)C1=CC(=O)C(C/C=C(\C)CCC=C(C)C)=C(O)C1=O , can you help?
47.8 ± 1.4%

Tell me the measured TRPV2 Efficacy (% Ionomycin 4 μM) of CCCCCCC(C)(C)C1=CC2=C(C(=O)C1=O)[C@@H]1CC(C)=CC[C@H]1C(C)(C)O2 , please.
78.1 ± 4.0%

Recorded TRPV2 Efficacy (% Ionomycin 4 μM) for CCCCCCC(C)(C)C1=CC(=O)C2=C(OC(C)(CCC=C(C)C)C=C2)C1=O (centres unmarked) , please?
31.5 ± 2.9%

* * *

- measurement target: rat TRPA1 (Rattus norvegicus, UniProt Q6RI86)
- Construct: expressed in transfected cells
- Sequence (Q6RI86 whole entry): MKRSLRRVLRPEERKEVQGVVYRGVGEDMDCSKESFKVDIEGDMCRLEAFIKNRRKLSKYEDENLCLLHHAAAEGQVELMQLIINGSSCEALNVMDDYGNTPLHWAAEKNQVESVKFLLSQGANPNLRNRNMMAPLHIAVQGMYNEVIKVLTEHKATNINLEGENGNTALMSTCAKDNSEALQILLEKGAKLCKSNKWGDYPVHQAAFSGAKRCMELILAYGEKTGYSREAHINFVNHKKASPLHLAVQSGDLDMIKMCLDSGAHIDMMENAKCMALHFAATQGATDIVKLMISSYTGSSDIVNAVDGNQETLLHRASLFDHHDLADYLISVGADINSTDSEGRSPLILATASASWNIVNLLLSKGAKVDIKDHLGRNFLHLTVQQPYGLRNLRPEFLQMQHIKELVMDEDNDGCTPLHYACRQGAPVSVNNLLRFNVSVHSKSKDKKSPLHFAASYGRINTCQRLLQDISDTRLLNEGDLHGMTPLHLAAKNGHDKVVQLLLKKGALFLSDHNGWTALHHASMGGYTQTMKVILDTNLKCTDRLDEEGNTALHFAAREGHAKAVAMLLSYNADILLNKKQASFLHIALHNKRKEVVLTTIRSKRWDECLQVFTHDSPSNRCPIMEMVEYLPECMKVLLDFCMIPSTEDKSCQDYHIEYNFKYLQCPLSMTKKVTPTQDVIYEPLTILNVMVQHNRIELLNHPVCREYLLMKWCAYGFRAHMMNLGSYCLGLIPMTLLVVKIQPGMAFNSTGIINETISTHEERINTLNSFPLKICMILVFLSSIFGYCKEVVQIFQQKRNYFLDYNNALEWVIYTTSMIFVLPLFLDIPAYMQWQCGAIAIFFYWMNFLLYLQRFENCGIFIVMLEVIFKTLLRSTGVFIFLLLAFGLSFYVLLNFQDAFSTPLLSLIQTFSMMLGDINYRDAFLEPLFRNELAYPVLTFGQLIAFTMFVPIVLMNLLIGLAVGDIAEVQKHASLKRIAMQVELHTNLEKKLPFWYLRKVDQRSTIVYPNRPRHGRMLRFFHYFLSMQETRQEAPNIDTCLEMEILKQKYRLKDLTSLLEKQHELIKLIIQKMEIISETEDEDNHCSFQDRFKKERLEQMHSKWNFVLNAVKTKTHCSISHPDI
- procedure details: Thermo-TRP assay: [Ca2+]i elevation (Fluo-4) in HEK-293 cells transfected with TRPA1
- Assay type: cell-based
- condition description: agonist effect as % of AITC 100 μM; HEK-293 rat TRPA1
recorded endpoint: TRPA1 Efficacy (% AITC 100 μM) (%)
# unit: % | format: bare number

What TRPA1 Efficacy (% AITC 100 μM) appears in the records for this compound with rat TRPA1 (Rattus norvegicus, UniProt Q6RI86)? CCCCCCC(C)(C)C1=CC2=C(C(=O)C1=O)c1cc(C)ccc1C(C)(C)O2
20.5

rat TRPA1 (Rattus norvegicus, UniProt Q6RI86) / TRPA1 Efficacy (% AITC 100 μM) / C=C(C)[C@@H]1CCC(C)=C[C@H]1C1=C(O)C(=O)C(C(C)(C)CCCCCC)=CC1=O : value?
120.4

Any idea what TRPA1 Efficacy (% AITC 100 μM) came out for CCCCCCC(C)(C)C1=CC2=C(C(=O)C1=O)[C@@H]1CC(C)=CC[C@H]1C(C)(C)O2 on rat TRPA1 (Rattus norvegicus, UniProt Q6RI86)?
147.3

Item CCCCCCC(C)(C)C1=CC(=O)C(C/C=C(\C)CCC=C(C)C)=C(O)C1=O with rat TRPA1 (Rattus norvegicus, UniProt Q6RI86) - TRPA1 Efficacy (% AITC 100 μM)?
114.2

Which TRPA1 Efficacy (% AITC 100 μM) is reported with rat TRPA1 (Rattus norvegicus, UniProt Q6RI86) for this entry: CCCCCCC(C)(C)C1=CC(=O)C2=C(OC(C)(CCC=C(C)C)C=C2)C1=O (centres unmarked) ?
111.2

* * *

- measurement target: rat TRPV3 (Rattus norvegicus, UniProt Q4QYD9)
- Construct: expressed in transfected cells
- Sequence (Q4QYD9 1-791): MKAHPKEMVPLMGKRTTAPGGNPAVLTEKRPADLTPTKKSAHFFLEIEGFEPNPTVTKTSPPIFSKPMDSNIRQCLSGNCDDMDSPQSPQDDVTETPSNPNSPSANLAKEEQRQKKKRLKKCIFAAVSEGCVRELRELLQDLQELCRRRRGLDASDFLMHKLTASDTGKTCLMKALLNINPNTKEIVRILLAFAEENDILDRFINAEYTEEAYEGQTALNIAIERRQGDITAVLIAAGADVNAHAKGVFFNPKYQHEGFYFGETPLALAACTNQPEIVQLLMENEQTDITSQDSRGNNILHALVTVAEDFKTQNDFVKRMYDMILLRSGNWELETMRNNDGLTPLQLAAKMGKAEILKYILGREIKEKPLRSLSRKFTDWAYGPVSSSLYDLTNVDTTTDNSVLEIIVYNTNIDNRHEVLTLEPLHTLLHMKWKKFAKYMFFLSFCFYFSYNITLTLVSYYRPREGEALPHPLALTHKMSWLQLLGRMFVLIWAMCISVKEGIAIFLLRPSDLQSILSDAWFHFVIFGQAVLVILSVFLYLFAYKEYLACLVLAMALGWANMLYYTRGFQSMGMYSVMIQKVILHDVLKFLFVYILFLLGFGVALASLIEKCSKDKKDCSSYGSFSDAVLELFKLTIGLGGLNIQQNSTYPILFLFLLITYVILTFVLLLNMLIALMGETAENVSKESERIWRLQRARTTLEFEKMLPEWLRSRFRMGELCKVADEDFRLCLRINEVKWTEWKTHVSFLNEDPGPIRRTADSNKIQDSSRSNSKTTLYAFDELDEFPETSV
- procedure details: Thermo-TRP assay: [Ca2+]i elevation (Fluo-4) in HEK-293 cells transfected with TRPV3
- Assay type: cell-based
- condition description: agonist effect as % of ionomycin 4 μM; cells sensitized with 2-aminoethoxydiphenyl borate 100 μM
For each of the compounds below, state its TRPV3 Efficacy (% Ionomycin 4 μM).
Note to self: number, then unit, no commentary.

Entry CCCCCCC(C)(C)C1=CC(=O)C(C/C=C(\C)CCC=C(C)C)=C(O)C1=O : reported TRPV3 Efficacy (% Ionomycin 4 μM) = ?
51.1 ± 1.0%

Report TRPV3 Efficacy (% Ionomycin 4 μM) for CCCCCCC(C)(C)C1=CC2=C(C(=O)C1=O)c1cc(C)ccc1C(C)(C)O2 please.
32.5 ± 0.65%

Value lookup for TRPV3 Efficacy (% Ionomycin 4 μM); key = C=C(C)[C@@H]1CCC(C)=C[C@H]1C1=C(O)C(=O)C(C(C)(C)CCCCCC)=CC1=O
64.3 ± 0.9%

I'd like to know its TRPV3 Efficacy (% Ionomycin 4 μM). The compound in question is CCCCCCC(C)(C)C1=CC(=O)C2=C(OC(C)(CCC=C(C)C)C=C2)C1=O (centres unmarked)
37.55 ± 0.85%

TRPV3 Efficacy (% Ionomycin 4 μM) for CCCCCCC(C)(C)C1=CC2=C(C(=O)C1=O)[C@@H]1CC(C)=CC[C@H]1C(C)(C)O2 ?
66.8 ± 2.2%
